Listed next: entries and their corresponding pKd.
biological target: T1, human TfR extracellular domain with N-terminal His tag (human, UniProt P02786 89-760); test: SPR, TfR captured by anti-His, Fab injected;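 further: single cycle kinetics with a Fab dilution series, fitted by a one-to-one Langmuir model or a steady state model, KD taken as koff over kon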
T1 construct: Biotinylated in some assays; also called huTfR; HuTfR
T1 sequence (P02786 89-760 G142S): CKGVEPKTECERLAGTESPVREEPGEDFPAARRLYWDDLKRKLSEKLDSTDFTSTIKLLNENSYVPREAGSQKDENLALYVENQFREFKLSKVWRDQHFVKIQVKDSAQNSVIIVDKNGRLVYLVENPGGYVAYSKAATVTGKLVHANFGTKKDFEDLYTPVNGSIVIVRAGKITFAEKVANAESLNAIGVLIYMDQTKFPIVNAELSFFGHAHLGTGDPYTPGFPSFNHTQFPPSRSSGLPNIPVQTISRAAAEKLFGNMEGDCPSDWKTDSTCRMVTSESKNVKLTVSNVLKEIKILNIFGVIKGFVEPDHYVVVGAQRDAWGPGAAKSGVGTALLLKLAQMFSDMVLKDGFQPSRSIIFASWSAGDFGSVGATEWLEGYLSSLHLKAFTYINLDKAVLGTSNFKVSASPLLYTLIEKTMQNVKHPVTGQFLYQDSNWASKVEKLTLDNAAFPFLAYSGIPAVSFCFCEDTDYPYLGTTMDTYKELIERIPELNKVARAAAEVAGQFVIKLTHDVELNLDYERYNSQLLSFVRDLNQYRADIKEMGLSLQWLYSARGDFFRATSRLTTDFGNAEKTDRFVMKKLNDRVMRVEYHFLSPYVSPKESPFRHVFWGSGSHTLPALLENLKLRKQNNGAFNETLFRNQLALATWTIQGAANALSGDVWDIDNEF
Quick note: pKd values are minus log10 of concentrations in mol/L.

The cases that follow already have their pKd on record.
BINDER	PROPERTY MEASURED	VALUE REPORTED
Hu7A4.v8.Fab (Fab, V domains shown, Fab) VH: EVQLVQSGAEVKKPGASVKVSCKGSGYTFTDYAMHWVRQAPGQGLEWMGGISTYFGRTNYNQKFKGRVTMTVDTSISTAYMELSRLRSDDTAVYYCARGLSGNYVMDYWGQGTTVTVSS VL: DIVMTQSPDSLAVSLGERATINCRASESVDSYGNSFMHWYQQKPGQPPKLLIYRASNLESGIPDRFSGSGSGTDFTLTISSLQAEDVAVYYCQQSNEGPPTFGQGTKLEIK	pKd	8.94
Mu7A4.Fab (Fab, V domains shown, Fab; also called mouse 7A4 Fab) VH: QVQLQQSGPELVRPGVSVKISCKGSGYTFTDYAMHWVKQSHAKSLEWIGGISTYFGRTNYNQKFKGRATMTVDKSSSTAYMELARLTSEDSALYYCARGLSGNYVMDYWGQGTSVTVSS VL: DIVLTQSPASLAVSLGQRATISCRASESVDDYGNSFMHWYQQKPGQPPKLLIYRASNLESGIPARFSGSGSRTDFTLTINPVEADDVATYYCQQSNEAPPTFGGGTKLEIR	pKd	9.72

**Query** Answer with the recorded pKd of Hu15G11.v1.Fab (Fab, V domains shown, Fab) VH: EVQLVQSGAEVKKPGASVKVSCKASGYTFTSYWMHWVRQAPGQRLEWMGEINPTNGRTNYIEKFKSRVTITRDTSASTAYMELSSLRSEDTAVYYCARGTRAYHYWGQGTMVTVSS VL: DIQMTQSPSSLSASVGDRVTITCRASDNLYSNLAWYQQKPGKAPKLLLYDATNLADGVPSRFSGSGSGTDYTLTISSLQPEDFATYYCQHFWGTPLTFGQGTKVEIK only.
**Result** 7.96
